experiment: Toxicity liver stage against HepG2, at 10uM; type: cell-based; set-up: test concentration 10 uM, cell line HepG2-A16-CD81EGFP; conditions: human, HepG2-A16-CD81EGFP cells; read-out: INHIBITION
measured attribute: cytotoxicity at 10 µM (%)
Numbers only, in %.

| compound | observed measurement |
| --- | --- |
| CCc1csc(CNc2cc(C)nc(-c3cccnc3)n2)n1 | 4.83 |
| CC(=O)N1CCCC1c1cccc(Cc2ccc(F)cc2)n1 (configuration not stated) | -1.98 |
| CN(C)Cc1cnc2n1CCN(C(=O)C1CC=CC1)CC2 | -81.3 |
| COCC(=O)N1CCN(C(=O)c2cccs2)[C@@H](C(=O)OC)C1 | -8.64 |
| CCOc1c(CNC2CSCCSC2)cccc1OC | 10.8 |
| COCCC(=O)N1CCCC1c1csc(Nc2ccccn2)n1 (configuration not stated) | -13.2 |
| Cc1nc(C)n(CC2CN(Cc3cccc(C(N)=O)c3)CCO2)n1 (configuration not stated) | 6.2 |
| CCC(=O)N1CCC(Cc2ccccc2-c2ccncc2)(C(=O)NC)C1 (configuration not stated) | -16 |
| CCCc1cnc(C)nc1N1CCC(Cc2ccc(CO)cc2)C1 (configuration not stated) | -2.36 |
| CNS(=O)(=O)CCCN1CCCN(Cc2ccccc2)CC1C (configuration not stated) | 9.77 |

Provide cytotoxicity at 10 µM for all items below, preserving their order.
1. Cc1ccsc1CN(Cc1ccccn1)CC(O)CO (configuration not stated)
2. CCS(=O)(=O)N1CCC2(CN(C(=O)c3cn(C)cn3)C2)C1

1. 0.773
2. 6.4

* * *

Exercise: state measured cytotoxicity at 10 µM for each of the compounds provided.
experiment: Toxicity liver stage against HepG2, at 10uM; assay type: cell-based; design: test concentration 10 uM, cell line HepG2-A16-CD81EGFP; details: human, HepG2-A16-CD81EGFP cells; read-out: INHIBITION
Numbers only, in %.

| compound | measured attribute | unit abbrev | observed measurement |
| --- | --- | --- | --- |
| CN1CCN(c2cc(Sc3cccs3)nc(N)n2)CC1CCO (stereo unspecified) | cytotoxicity at 10 µM | % | 1.31 |

Provide cytotoxicity at 10 µM for all items below, preserving their order.
1. Cc1nc(CN(C)CC2CCCN(CCc3ccc(Cl)cc3)C2)n(C)n1 (stereo unspecified)
2. O=C(Cc1ccc2c(c1)CCCC2)Nc1cccnc1N1CCSCC1

1: 4.44; 2: 11.4

Provide cytotoxicity at 10 µM for all items below, preserving their order.
1. CN([C@@H]1CC[C@@H](N2CCCC2)[C@@H]1O)S(=O)(=O)c1ccccc1
2. CCCNC(=O)C1CCN(Cc2csc(C(C)C)n2)CC1
3. CC(=O)N1CCCn2nc(CNC(=O)N3CCCCC3)cc2C1

-4.29
-19.5
-3.91

* * *

test: Toxicity liver stage against HepG2, at 10uM; type: cell-based; set-up: test concentration 10 uM, cell line HepG2-A16-CD81EGFP; details: human, HepG2-A16-CD81EGFP cells; read-out: INHIBITION
Exercise: state measured cytotoxicity at 10 µM for each of the compounds provided.
Numbers only, in %.

See these solved cases before continuing.
| compound | unit abbrev | cytotoxicity at 10 µM |
| --- | --- | --- |
| O=C(O)CN1CCC(c2ccccc2)CC1 | % | 1.73 |
| CCN(CC)S(=O)(=O)N1CCCC(c2nccn2Cc2cccnc2)C1 (stereo unspecified) | % | 7.07 |
| CCN(C)C(=O)c1cccc(S(=O)(=O)NCCc2nc(C)cc(=O)[nH]2)c1 | % | -39.9 |
| Cn1cccc1C(=O)N1CC[C@H]2[C@H](CO[C@H]2CNS(C)(=O)=O)C1 | % | -2.94 |
| Nc1nc2c(c(N3CCSCC3)n1)CCN(Cc1ccccn1)CC2 | % | -53 |

Provide cytotoxicity at 10 µM for all items below, preserving their order.
1. COc1ccc(F)c(CN2CCCC3(CCN(S(C)(=O)=O)C3)C2)c1 (stereo unspecified)
2. CC(C)c1nc(C(=O)N2C[C@@H]3CC[C@H]2CN(C2CCOCC2)C3)cs1
3. CC(O)CN(Cc1cccc(C(N)=O)c1)c1ccccc1 (stereo unspecified)
4. COc1ccc(Br)c(C(=O)NCC2CC2)c1
5. Brc1ccc(CN2CCC(NCc3ncc[nH]3)CC2)cc1

1: -2.93; 2: 5.31; 3: 10.1; 4: 23.4; 5: 14.8

Let me know recorded cytotoxicity at 10 µM for Cc1ccc(C(=O)N(C)Cc2cc(Br)cs2)c(=O)[nH]1 , thanks.
-0.782
